Source of measurements: patent US5190959A

System: isolated heart
procedure-text: Langendorff perfused isolated heart: perfusion pressure, contractive force, heart rate
Parameters: species or system Wistar male rat
condition-description: 1 μg/heart; means value ± S.D., n = 3-4; ** p <0.01 vs control
Structures can show the parent of a compound that is named as a salt.
metric-name: Perfusion pressure (Δ %)
One number for each entry, in %.

Hello, I am looking for reported Perfusion pressure (Δ %) with isolated heart for CS(=O)(=O)Nc1ccccc1OCCCN1CCC(OC(c2ccsc2)c2ccsc2)CC1 . Could you help?
-28.9

Hello, I am looking for reported Perfusion pressure (Δ %) with isolated heart for CS(=O)(=O)Nc1ccccc1OCCCN1CCC(OC(c2ccccc2)c2ccccc2)CC1 . Could you help?
-24.8

Can you give me Perfusion pressure (Δ %) for all of these, one by one?
1. CS(=O)(=O)Nc1ccccc1OCCCN1CCC(OC(c2ccc(Cl)cc2)c2ccccn2)CC1 (stereo not shown)
2. COc1ccc([C@@H]2Sc3ccccc3N(CCN(C)C)C(=O)[C@@H]2OC(C)=O)cc1 [Diltiazem hydrochloride, reference compound]

1: -19.2; 2: -32.1

----------
Tested on: isolated heart
procedure-text: Langendorff perfused isolated heart: perfusion pressure, contractive force, heart rate
Parameters: species or system Wistar male rat
condition-description: 10 μg/heart; means value ± S.D., n = 3-4; ** p <0.01 vs control
Structures can show the parent of a compound that is named as a salt.
metric-name: Heart rate (Δ %)
Please don't drop the unit; write it after the number.

# count of solved cases: 3
Which measured Heart rate (Δ %) value corresponds to CS(=O)(=O)Nc1ccccc1OCCCN1CCC(OC(c2ccccc2)c2ccccc2)CC1 ?
-0.7 ± 1.2%

Which measured Heart rate (Δ %) value corresponds to CS(=O)(=O)Nc1ccccc1OCCCN1CCC(OC(c2ccc(Cl)cc2)c2ccccn2)CC1 (stereo not shown) ?
-4.6 ± 4.7%

Which measured Heart rate (Δ %) value corresponds to CS(=O)(=O)Nc1ccccc1OCCCN1CCC(OC(c2ccsc2)c2ccsc2)CC1 ?
-6.3 ± 1.5%

// next item, Heart rate (Δ %) requested
Which measured Heart rate (Δ %) value corresponds to COc1ccc([C@@H]2Sc3ccccc3N(CCN(C)C)C(=O)[C@@H]2OC(C)=O)cc1 [Diltiazem hydrochloride, reference compound] ?
-25.9 ± 30.3%

----------
Test system: isolated heart
procedure-text: Langendorff perfused isolated heart: perfusion pressure, contractive force, heart rate
Set-up: species or system Wistar male rat
condition-description: 10 μg/heart; means value ± S.D., n = 3-4; ** p <0.01 vs control
Counter-ions that a name gives are not always drawn.
Give measured Contractive force (Δ %) for each item. Keep answers brief.

# count of solved cases: 3
Which measured Contractive force (Δ %) value corresponds to CS(=O)(=O)Nc1ccccc1OCCCN1CCC(OC(c2ccsc2)c2ccsc2)CC1 [Example 44] ?
16.2 ± 11.3%

Which measured Contractive force (Δ %) value corresponds to COc1ccc([C@@H]2Sc3ccccc3N(CCN(C)C)C(=O)[C@@H]2OC(C)=O)cc1 [Diltiazem hydrochloride, reference compound] ?
-67.1 ± 17.5%

Which measured Contractive force (Δ %) value corresponds to CS(=O)(=O)Nc1ccccc1OCCCN1CCC(OC(c2ccccc2)c2ccccc2)CC1 [Example 1] ?
11.8 ± 2.3%

// next item, Contractive force (Δ %) requested
Which measured Contractive force (Δ %) value corresponds to CS(=O)(=O)Nc1ccccc1OCCCN1CCC(OC(c2ccc(Cl)cc2)c2ccccn2)CC1 (stereo not shown) [Example 33] ?
16.0 ± 4.5%

----------
Give measured Kb for each item. Keep answers brief.
target-entity: histamine-induced constriction of tracheal smooth muscle (Cavia porcellus, UniProt P31389)
Construct: Isolated tracheal smooth muscle chain strips were prepared by a usual method; from tissue; host or cells: isolated tracheal smooth muscle chain strips of Hartley male guinea pigs
Sequence (P31389 whole entry): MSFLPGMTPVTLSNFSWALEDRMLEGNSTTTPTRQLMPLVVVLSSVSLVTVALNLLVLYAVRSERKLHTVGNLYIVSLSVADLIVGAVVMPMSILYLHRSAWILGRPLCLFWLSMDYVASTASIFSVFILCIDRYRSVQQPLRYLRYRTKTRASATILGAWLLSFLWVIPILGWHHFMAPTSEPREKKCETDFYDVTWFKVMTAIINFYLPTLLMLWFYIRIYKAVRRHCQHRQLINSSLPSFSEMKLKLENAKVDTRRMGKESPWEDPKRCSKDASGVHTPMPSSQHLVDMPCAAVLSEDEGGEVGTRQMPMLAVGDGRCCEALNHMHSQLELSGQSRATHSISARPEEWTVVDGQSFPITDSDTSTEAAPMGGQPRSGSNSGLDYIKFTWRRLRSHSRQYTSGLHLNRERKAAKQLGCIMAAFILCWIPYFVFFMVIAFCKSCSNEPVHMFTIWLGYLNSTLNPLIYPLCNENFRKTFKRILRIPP
procedure-text: Antihistaminic activity (isolated tracheal smooth muscle chain strips, histamine constriction)
Type: cell-based, Hartley male guinea pig
condition-description: guinea pig tracheal strip; compound 5 min prior to histamine; Van Rossum; read-out: pA2 (converted)
Please don't drop the unit; write it after the number.

# count of solved cases: 5
Hello, I am looking for reported Kb with histamine-induced constriction of tracheal smooth muscle (Cavia porcellus, UniProt P31389) for CS(=O)(=O)Nc1ccccc1OC/C=C\CN1CCC(OC(c2ccccc2)c2cccs2)CC1 (stereo not shown) . Could you help?
6.31 nM

Hello, I am looking for reported Kb with histamine-induced constriction of tracheal smooth muscle (Cavia porcellus, UniProt P31389) for O=c1[nH]c2ccccc2n1CCCN1CCN(C(c2ccccc2)c2ccccc2)CC1 [Oxatomide, reference compound] . Could you help?
1.26 nM

Hello, I am looking for reported Kb with histamine-induced constriction of tracheal smooth muscle (Cavia porcellus, UniProt P31389) for CS(=O)(=O)Nc1ccccc1OCCCN1CCC(OC(c2ccccc2)c2cccnc2)CC1 (stereo not shown) [Example 34 (fumarate)] . Could you help?
0.126 nM

Hello, I am looking for reported Kb with histamine-induced constriction of tracheal smooth muscle (Cavia porcellus, UniProt P31389) for CS(=O)(=O)Nc1ccccc1OCCCN1CCC(OC(c2ccccc2)c2ccccc2)CC1 . Could you help?
2 nM

Hello, I am looking for reported Kb with histamine-induced constriction of tracheal smooth muscle (Cavia porcellus, UniProt P31389) for CC(CCOc1ccccc1NS(C)(=O)=O)N1CCC(OC(c2ccccc2)c2cccs2)CC1 (stereo not shown) . Could you help?
3.98 nM

Can you give me Kb for all of these, one by one?
1. CS(=O)(=O)Nc1ccccc1OCCCN1CCC(OC(c2ccccc2)c2cccs2)CC1 (stereo not shown) [Example 36 (fumarate)]
2. CS(=O)(=O)Nc1ccccc1OCCCN1CCC(OC(c2ccsc2)c2ccsc2)CC1 [Example 44 (fumarate)]

["2.51 nM", "2.51 nM"]
